Entries and their measured MIC follow.
test system: escherichia coli; test: agar serial dilution test, minimum inhibitory concentration; format: cell-based; conditions: ES CO strain 9637
Property Measured: MIC (µg/mL)

# Compound, Study System, Unit Abbrev, Recorded Number
data = [
    ("CC(=O)OCC1=C(C(=O)O)N2C(=O)[C@@H](NC(=O)CSC(=NS(C)(=O)=O)SCC#N)[C@H]2SC1 [Example 14]", "escherichia coli", "µg/mL", 125),
    ("CC(=O)OCC1=C(C(=O)O)N2C(=O)[C@@H](NC(=O)CSC(=NC#N)SCc3cccc(Cl)c3)[C@H]2SC1 [Example 16]", "escherichia coli", "µg/mL", 250),
    ("CC(=O)OCC1=C(C(=O)O)N2C(=O)[C@@H](NC(=O)CSC(SCC#N)=C(C#N)c3ccccc3)[C@H]2SC1 [Example 8]", "escherichia coli", "µg/mL", 25),
    ("CC(=O)OCC1=C(C(=O)O)N2C(=O)[C@@H](NC(=O)CSC(SCC#N)=C(C#N)C#N)[C@H]2SC1 [Example 2]", "escherichia coli", "µg/mL", 31.3),
    ("C=CCSC(=NC#N)SCC(=O)N[C@@H]1C(=O)N2C(C(=O)O)=C(COC(C)=O)CS[C@H]12 [Example 19]", "escherichia coli", "µg/mL", 250),
    ("CC(=O)OCC1=C(C(=O)O)N2C(=O)[C@@H](NC(=O)CSC(=NC#N)SCc3ccc([N+](=O)[O-])cc3)[C@H]2SC1 [Example 13]", "escherichia coli", "µg/mL", 250),
    ("CC(=O)OCC1=C(C(=O)O)N2C(=O)[C@@H](NC(=O)CSC(=NC#N)SCc3ccc(Cl)cc3)[C@H]2SC1 [Example 18]", "escherichia coli", "µg/mL", 250),
    ("CCOC(=O)CSC(SCC(=O)N[C@@H]1C(=O)N2C(C(=O)O)=C(COC(C)=O)CS[C@H]12)=C(C#N)C#N [Example 1]", "escherichia coli", "µg/mL", 250),
    ("CC(=O)OCC1=C(C(=O)O)N2C(=O)[C@@H](NC(=O)CSC(=C[N+](=O)[O-])SCC#N)[C@H]2SC1 [Example 6]", "escherichia coli", "µg/mL", 62.5),
    ("CCOC(=O)CSC(SCC(=O)N[C@@H]1C(=O)N2C(C(=O)O)=C(COC(C)=O)CS[C@H]12)=C(C#N)C(N)=O [Example 4]", "escherichia coli", "µg/mL", 250),
    ("COC(=O)CSC(SCC(=O)N[C@@H]1C(=O)N2C(C(=O)O)=C(COC(C)=O)CS[C@H]12)=C(C#N)C(N)=O [Example 3]", "escherichia coli", "µg/mL", 62.5),
    ("CC(=O)OCC1=C(C(=O)O)N2C(=O)[C@@H](NC(=O)CSC(=NC#N)SCc3ccccc3)[C@H]2SC1 [Example 10]", "escherichia coli", "µg/mL", 15.6),
    ("CC(=O)OCC1=C(C(=O)O)N2C(=O)[C@@H](NC(=O)CSC(=NC#N)SCC#N)[C@H]2SC1 [Example 7]", "escherichia coli", "µg/mL", 31.3),
    ("CCOC(=O)CSC(=NC#N)SCC(=O)N[C@@H]1C(=O)N2C(C(=O)O)=C(COC(C)=O)CS[C@H]12 [Example 12]", "escherichia coli", "µg/mL", 250),
    ("CC(=O)OCC1=C(C(=O)O)N2C(=O)[C@@H](NC(=O)CSC(=C[N+](=O)[O-])SCc3ccccc3)[C@H]2SC1 [Example 9]", "escherichia coli", "µg/mL", 250),
    ("C#CCSC(=NC#N)SCC(=O)N[C@@H]1C(=O)N2C(C(=O)O)=C(COC(C)=O)CS[C@H]12 [Example 17]", "escherichia coli", "µg/mL", 31.3),
]

---

Entries and their measured MIC follow.
tested on: Staphylococcus aureus; assay: agar serial dilution test, minimum inhibitory concentration; format: cell-based; settings: Staphylococcus aureus, ST AU strain CHP

# Chemical Smiles, MIC, µg/mL
rows = [
    ("CC(=O)OCC1=C(C(=O)O)N2C(=O)[C@@H](NC(=O)CSC(=NC#N)SCc3ccc(Cl)cc3)[C@H]2SC1", 7.81),
    ("CC(=O)OCC1=C(C(=O)O)N2C(=O)[C@@H](NC(=O)CSC(=C[N+](=O)[O-])SCc3ccccc3)[C@H]2SC1", 0.488),
    ("CC(=O)OCC1=C(C(=O)O)N2C(=O)[C@@H](NC(=O)CSC(=NC#N)SCc3cccc(Cl)c3)[C@H]2SC1", 1.95),
    ("CC(=O)OCC1=C(C(=O)O)N2C(=O)[C@@H](NC(=O)CSC(=NC#N)SCc3ccccc3)[C@H]2SC1", 3.9),
]

---

Entries and their measured log10(MIC) follow.
test system: neisseria catarrhalis; assay: agar serial dilution test, minimum inhibitory concentration; assay type: cell-based; conditions: NE CA strain 8193, read-out: Minimum Inhibitory Concentration
Property Measured: log10(MIC) (log10 of the value in µg/mL)

# Molecule, log10(MIC)
measured = [
    ("COC(=O)CSC(SCC(=O)N[C@@H]1C(=O)N2C(C(=O)O)=C(COC(C)=O)CS[C@H]12)=C(C#N)C(N)=O [Example 3]", 0.89),
    ("CC(=O)OCC1=C(C(=O)O)N2C(=O)[C@@H](NC(=O)CSC(SCC#N)=C(C#N)c3ccccc3)[C@H]2SC1 [Example 8]", 0.59),
    ("CC(=O)OCC1=C(C(=O)O)N2C(=O)[C@@H](NC(=O)CSC(=C[N+](=O)[O-])SCC#N)[C@H]2SC1 [Example 6]", 1.80),
    ("CC(=O)OCC1=C(C(=O)O)N2C(=O)[C@@H](NC(=O)CSC(=C[N+](=O)[O-])SCc3ccccc3)[C@H]2SC1 [Example 9]", 0.89),
    ("CC(=O)OCC1=C(C(=O)O)N2C(=O)[C@@H](NC(=O)CSC(=NC#N)SCc3ccc(Cl)cc3)[C@H]2SC1 [Example 18]", 2.40),
    ("CC(=O)OCC1=C(C(=O)O)N2C(=O)[C@@H](NC(=O)CSC(=NS(C)(=O)=O)SCC#N)[C@H]2SC1 [Example 14]", 2.10),
    ("CCOC(=O)CSC(=NC#N)SCC(=O)N[C@@H]1C(=O)N2C(C(=O)O)=C(COC(C)=O)CS[C@H]12 [Example 12]", 1.80),
]

---

test system: Staphylococcus aureus; experiment: agar serial dilution test, minimum inhibitory concentration; type: cell-based; settings: Staphylococcus aureus, ST AU strain 6538P
Entries and their measured MIC follow.
Property Measured: MIC (µg/mL)

# Chemical Smiles, Recorded Number
data = [
    ("CC(=O)OCC1=C(C(=O)O)N2C(=O)[C@@H](NC(=O)CSC(=NC#N)SCc3ccc([N+](=O)[O-])cc3)[C@H]2SC1", 1.95),
    ("C=CCSC(=NC#N)SCC(=O)N[C@@H]1C(=O)N2C(C(=O)O)=C(COC(C)=O)CS[C@H]12", 1.95),
    ("CC(=O)OCC1=C(C(=O)O)N2C(=O)[C@@H](NC(=O)CSC(=NS(C)(=O)=O)SCC#N)[C@H]2SC1", 1.95),
    ("COC(=O)CSC(SCC(=O)N[C@@H]1C(=O)N2C(C(=O)O)=C(COC(C)=O)CS[C@H]12)=C(C#N)C(N)=O", 0.488),
    ("CC(=O)OCC1=C(C(=O)O)N2C(=O)[C@@H](NC(=O)CSC(=NC#N)SCc3ccccc3)[C@H]2SC1", 0.976),
    ("CCOC(=O)CSC(=NC#N)SCC(=O)N[C@@H]1C(=O)N2C(C(=O)O)=C(COC(C)=O)CS[C@H]12", 0.976),
    ("CC(=O)OCC1=C(C(=O)O)N2C(=O)[C@@H](NC(=O)CSC(=C[N+](=O)[O-])SCc3ccccc3)[C@H]2SC1", 0.122),
]
